# PROCEDURE SUMMARY: Human HepG2 cell viability assay in 384 well format
# Assay type: toxicity, cell-based
# Set-up: dose 125 nL, time 70.5 hour; concentration not given beside the values
# ASSAY SETUP: HepG2 cells, read-out: Inhibition
Below is a list of entries, each paired with its recorded cytotoxicity at 70.5 h value.
OBSERVED PROPERTY: cytotoxicity at 70.5 h (%)

* Cc1cc(C(=O)N2CCC(Nc3cccnn3)CC2)no1 | 11.5
* c1csc(CN2CCCC3(COCCN(c4cnccn4)C3)C2)c1 (stereo unspecified) | -6.31
* C[C@@H]1CN(CCOc2ccc(Cl)cc2)CC[C@@]1(O)C1CCOCC1 | 7.29
* O=C(c1ccc(=O)[nH]n1)N(CCO)Cc1cc(Br)ccc1F | -5.4
* CCc1csc(C2CCCN(C(=O)c3cc(C4CC4)[nH]n3)C2)n1 (stereo unspecified) | -7.48
* O=C(CN1CC(n2cccn2)C1)NCCCc1ccccc1 | -8.01

* * *

Below is a list of entries, each paired with its recorded cytotoxicity at 70.5 h value.
# PROCEDURE SUMMARY: Human HepG2 cell viability assay in 384 well format
# Format: toxicity, cell-based
# Parameters: dose 125 nL, time 70.5 hour; concentration not given beside the values
# ASSAY SETUP: HepG2 cells, read-out: Inhibition
OBSERVED PROPERTY: cytotoxicity at 70.5 h

- Cc1cnc(N2C[C@H]3CCCC(N(C)Cc4ccccn4)[C@H]3C2)nc1 (stereo not given in full): -9.85%
- Cc1ccc(CN2CCC(Cc3nnc(CO)n3C)CC2)cc1C: 3.69%
- COc1ccc(C(C)N(C)Cc2nc3c(cnn3C)c(=O)[nH]2)cc1 (stereo not given): -8.42%
- COc1ccc2c(c1)C(C(=O)N(C)CCCc1cnn(C)c1)CC(=O)N2 (stereo not given): -12.9%
- OC[C@H]1CC[C@]2(CC1)CN(Cc1ccsc1)Cc1ccccc1O2: 7.87%

* * *

# PROCEDURE SUMMARY: Human HepG2 cell viability assay in 384 well format
# Format: toxicity, cell-based
# Parameters: dose 125 nL, time 70.5 hour; concentration not given beside the values
# ASSAY SETUP: HepG2 cells, read-out: Inhibition
OBSERVED PROPERTY: cytotoxicity at 70.5 h (%)

* N#CCc1ccc(OCC(=O)N2CCCC(n3cccn3)C2)cc1 (configuration not stated) | -10.5
* CC(C)c1ccc(C(CN)N2CCc3sccc3C2)cc1 (configuration not stated) | -2.57
* Cc1cc(C(=O)N2CCC3(CC2)C(=O)N(C)CCN3CC2CC2)c(C)o1 | -2.24
* O=C(NCCCc1nc(=O)[nH][nH]1)Nc1ccc(Cl)cc1 | -13.5
* CC(C)N(C(=O)N1CCn2cncc2C1)C(C)C | 1.59
* COc1ccsc1C(=O)N1CCCC(n2nc(C)cc2C)C1 (configuration not stated) | -3.66
* CCN(CC)CCCNCc1cc2cccc(C)c2[nH]c1=O | -4.69
* O=S(=O)(N1CCCCC1)N1CCOC2(CCCC2)C1 | -0.763
* COCCC(=O)NCCc1nc(N(C)C)ncc1-c1ccncc1 | -3.62
* CSc1ccc(OC(C)C(=O)Nc2cc[nH]n2)cc1 (configuration not stated) | -2.7
* CN1CCCC[C@@H]2[C@H]1[C@@H](c1ccccc1)CCN2C(=O)c1cccnc1 | -7.01
* CN(C)C(=O)N1CCC2(CC1)COCCN(c1ncccn1)C2 | -3.19

* * *

# PROCEDURE SUMMARY: Human HepG2 cell viability assay in 384 well format
# Type: toxicity, cell-based
# Set-up: dose 125 nL, time 70.5 hour; concentration not given beside the values
# ASSAY SETUP: HepG2 cells, read-out: Inhibition
OBSERVED PROPERTY: cytotoxicity at 70.5 h (%)

- COCC(=O)N[C@H]1C[C@@H](Cc2cc(CN3CCCCC3)on2)C1(C)C: 24.1
- CN(Cc1ccc(F)cc1)CC1(O)CCN(C(=O)c2cccn2C)C1 (stereo not drawn): -10.7
- COc1ccc(-c2noc(CN3CCCC3Cn3cccn3)n2)cc1 (stereo not drawn): -1.01
- CCc1ccc2nc(NCCCN(CCO)CCO)cc(C)c2c1: -3.69
- CCN1CC(CN2CCOCC2)Oc2ncccc2C1=O (stereo not drawn): 13.2
- CN(c1ncccc1CNC(=O)c1csnn1)C1CCCCC1: 26.5
- c1cnc(N2CCCC3(CCN(Cc4ccsc4)C3)C2)nc1 (stereo not drawn): 11.1
- O=C(c1cccc(-n2cccn2)c1)N1CCOC(CCO)C1 (stereo not drawn): 1.32
- CCCN1CCCC1c1nc(Cc2ccc(F)cc2)no1 (stereo not drawn): 15.1
- Cc1cc(NCC2CC(=O)Nc3ccccc32)nc(C)n1 (stereo not drawn): -1.89
- CCOc1ccc(CN(C)C(=O)COc2ccc(C)nc2)cc1: -8.96
- CN1CCN(Cc2cn3c(n2)CN(Cc2cccc(F)c2)CC3)CC1: -11.9
- c1cc(CNc2nnc(Cc3ccsc3)o2)cs1: -8.44
- CC(C)C(N)C1=N/C(=C2\N=CN=N2)NO1 (stereo not drawn): 5.13
- Cc1ccc(C)c(-n2cc(CN3CC[C@@H](O)C3)c(-c3ccccc3)n2)c1: -0.782
- O=C(c1ccncc1)N1CCCC(c2cc(C(F)F)n3ncnc3n2)C1 (stereo not drawn): -3.18
- CCC(NC(=O)c1ccc(COC)o1)c1nc(C(F)(F)F)cs1 (stereo not drawn): 4.55
- Cc1ncc(-c2ccccn2)c(CCNC(=O)C2CCCC2)n1: 14.1
- CN(C)CCO[C@@H]1CC[C@H]2[C@H]1OCCN2C(=O)c1ccncc1: -3.32
- COCc1cc(N2CCOCC2)n2nccc2n1: -3.4
- CCN(CC)CC1CN(Cc2ccco2)Cc2nccn2C1 (stereo not drawn): -4.92
- Cc1cc(N(C)C)nc(C2COCCN2Cc2cscn2)n1 (stereo not drawn): 18
- COc1ccc(CN2CCCC2c2cccc(F)c2)c(OC)c1OC (stereo not drawn): -6.93
- COc1ccccc1CNC(=O)N1CCCC(CO)C1 (stereo not drawn): 11.7
- O=C(Cc1ccsc1)N1CCCC(c2n[nH]c3nccnc23)C1 (stereo not drawn): 18.6
- Cc1nnc(CNC(=O)[C@@H]2C[C@H](NC(=O)C(C)(C)C)CN2C)[nH]1: -9.08
- Cc1cc(N2CCC3(CCC(=O)N(CCCO)C3)CC2)nc(N(C)C)n1: -2.5
- Cc1noc(C)c1CCCNC(=O)C1CCN(C(C)C)CC1: -7.17
- CCN1CC2(CCC1=O)CCN(C(=O)c1ccc(Cl)cc1O)CC2: -2.93
- Cn1c(=O)oc2ccc(NC(=O)N3CCc4ccccc4C3)cc21: 2.84
- CCc1nc(C)c(C(C)N(C)CCc2ccccn2)s1 (stereo not drawn): 9.61
- CCc1cnc(N2CC3(CCN(S(=O)(=O)C4CC4)C3)C2)nc1: -8.49
- Cc1ccc(CN2C[C@@H]3C[C@H](C(=O)NCC4CC4)N(C)[C@@H]3C2)o1: 10.1
- COc1c(C2CCCN2CC(=O)Nc2cccnc2)c(C)nn1C (stereo not drawn): -6.38
- CCN(C)C(=O)CN1CCC(c2cc(N3CCOCC3)nc(C)n2)CC1: -6.04
- CNC(=O)C(c1cccc(Cl)c1)C(C)C (stereo not drawn): 17.1
- CCS(=O)(=O)N1CCc2cc(C(=O)NC)c(N(C)C)nc2CC1: 5.95
- CCn1/c(=N/C(=O)CSCC(=O)Nc2nccs2)sc2ccccc21: -0.443
- O=C(O)CC1CN(S(=O)(=O)c2cccc(F)c2)c2ccccc21 (stereo not drawn): 22.7
- CCn1nccc1CNC(=O)C(C)n1cc2c(n1)c(C)nn2C (stereo not drawn): 3.69
- Cc1cc(C)n(CC(C)NC(=O)c2cc(CN3CCC(O)CC3)on2)n1 (stereo not drawn): -9.49
- Cc1cnn(CCC(=O)N2CCCC(c3ccn[nH]3)C2)c1 (stereo not drawn): -1.8
- O=C(CCSc1ccc(F)cc1)NS(=O)(=O)c1ccc2c(c1)OCCO2: -6.96
- c1ccc(CN2CCCn3nnc(Cn4cccc4)c3C2)nc1: -7.02
- CC(C)(C)CN[C@@H]1CO[C@H](CNC(=O)c2ccncc2)[C@H]1O: 0.614
- Cc1nc(N)ncc1C(=O)N1CCCC1(C)C(=O)N(C)C (stereo not drawn): -3.98
- CC(C)(C)Oc1ccccc1CNC(=O)C1CCCOC1 (stereo not drawn): -0.0152
- CN1CCOC(CNCC(=O)NCCc2ccc3c(c2)OCCO3)C1 (stereo not drawn): 4.64

* * *

# PROCEDURE SUMMARY: Human HepG2 cell viability assay in 384 well format
# Format: toxicity, cell-based
# Set-up: dose 125 nL, time 70.5 hour; concentration not given beside the values
# ASSAY SETUP: HepG2 cells, read-out: Inhibition
OBSERVED PROPERTY: cytotoxicity at 70.5 h

• CC(Cn1cccn1)NCc1ccc(OCc2ccncc2)cc1 (stereo unspecified) = 3.19%
• Cn1c(N)nnc1SCC1OCCc2ccccc21 (stereo unspecified) = 6.39%
• CCNC(=O)N1C[C@@H]2OCC(=O)N(CC3CCCCC3)[C@@H]2C1 = -3.95%
• Cc1ccccc1CSc1nc(N)cc(N2C[C@H](O)[C@@H](N(C)C)C2)n1 = -2.01%
• COc1ccc(C(=O)Nc2c(C)nc3cccc(C)n3c2=O)cc1 = -17.1%
• CC(=O)N[C@@H]1CN(Cc2ccc(F)cc2F)C[C@H]1c1ccc(C)o1 = 11.7%
• Cc1nccn1-c1cccc(C2CCCN(C(=O)c3cc[nH]n3)C2)n1 (stereo unspecified) = 24.4%
• CCn1ccnc1CN1CCN(c2nccc(OC)n2)CC1C (stereo unspecified) = 18.6%
• CCc1nnc(Nc2cccc(C3CCN(C(=O)CO)CC3)n2)s1 = -4.24%
• CN1CC2(CCCN(C(=O)Cc3cccc(O)c3)C2)OC1=O (stereo unspecified) = -6.74%
• COc1ccc(NC2(C(=O)N3CCCn4cncc4C3)CCCC2)cc1 = -13%
• CNS(=O)(=O)CC(=O)N(Cc1ccccc1)c1ccc(C)cc1 = -5.84%
• CN1CCOC(CNCc2nc(-c3ccoc3)no2)C1 (stereo unspecified) = -6.11%
• Cc1cncc(C(=O)N2CCO[C@H]3[C@H](Oc4ccccn4)CC[C@@H]32)c1 = -12.4%
• CN(C(=O)Cn1nc(-c2ccc(F)cc2)oc1=O)C1CCS(=O)(=O)C1 (stereo unspecified) = 12.8%
• COc1ncc(C(=O)NCc2ccccc2)cn1 = 0.247%
• COc1ccc(C(=O)N2CCOCC(CO)C2)cc1N1CCOCC1 (stereo unspecified) = -3.09%
• c1nc2c(c(N3CCOC(Cn4cncn4)C3)n1)CCC2 (stereo unspecified) = -7.61%
• CN(C)Cc1ccc(N2CCN(CCOCC(F)(F)F)CC2)nc1 = 17.7%
• CCN1CCn2nc(CCC(=O)N3CCCC3)cc2C1 = -4.63%
• Cc1ccc(C(=O)NCC2(O)CCOCC2)cc1Br = -7.13%
• Cc1cc(C)n(C2CCN(S(C)(=O)=O)CC2)n1 = 9.79%
• CCn1nc(C)c2nc(C(C)C)nc(N3CCOCC3)c21 = 11.2%
• Oc1ccc(N2CCN(Cc3ccc(F)cc3Br)CC2)cc1 = -7.04%
• CN1CCCC(CNC(=O)N(C)Cc2ccc(Cl)c(F)c2)C1 (stereo unspecified) = 7.7%
• O=C(c1ccc(Cl)cc1)N1CCC2(CC1)C(=O)Nc1ccccc12 = 14.3%
• CC(C)c1cc2c(O)nc(CSCC(=O)NCc3ccncc3)nc2s1 = -12.9%
• Cc1cccc2c1nc1n2[C@@H](CNC(=O)C2CCOCC2)COC1 = -4.19%
• Cc1cccc(CNC(=O)CCc2c(C)nc3cc(O)nn3c2C)n1 = -14%
• CC(C)c1ncc(CN2C[C@@H](CN3CCC(O)CC3)[C@@H](CO)C2)cn1 = 37.8%
• COCCN(Cc1cccnc1)S(=O)(=O)c1ccc(F)cc1C = -4.8%
• Cc1nc(CCC(=O)NC2CCC2)cc(C2CCNCC2)n1 = 21.9%
• Cn1nc2c(cc1=O)CN(Cc1nc(-c3ccsc3)no1)CC2 = -19.7%
• CN(C)Cc1cn2c(n1)CN(CC1CCCC1)CC2 = -6.79%
• O=C(CO)N1CC[C@@H](N2CCN(c3ccccc3F)CC2)[C@H](O)C1 = 6.39%
• CCc1ncc2c(n1)CN(CC(=O)Nc1ccncc1)CC2 = -3.06%
• CN1CC(c2ccccc2)CC12CCN(C(=O)c1ccc(Cl)cc1)CC2 (stereo unspecified) = 7.42%
• CC(C)C(=O)NC1CCN(c2cccc(OC(F)(F)F)c2)C1=O (stereo unspecified) = 8.86%
• CC1CN(C)CCN1Cc1cccc(C(=O)NCc2ccco2)c1 (stereo unspecified) = 27.4%
• CCOC(=O)[C@@H]1[C@H]2CN(C(=O)OC)CCN2C[C@H]1c1ccccc1 = -5.21%
• CCCS(=O)(=O)CC(=O)Nc1cc(CC(C)(C)C)n[nH]1 = -0.508%
• CC(C)NC(=O)c1nnn(-c2cccc(F)c2)c1C1CC1 = -6.18%
• CO[C@H]1CNC[C@@H]1NC(=O)c1cc(C)nc2c(C)c(C)ccc12 = 5.29%
• CC(C)CN1C(=O)CO[C@@H]2CN(C(=O)[C@H]3CCCO3)C[C@H]21 = -1.2%
• Cc1ccc(S(=O)(=O)Nc2ccc(=O)n(C)c2)cc1 = -13.1%
• O=C(c1ccc(F)cc1)N1C[C@H]2CCC[C@@]2(COCc2ccncc2)C1 = -0.425%
